Below, each entry is listed alongside its reported Tmax.
test.protocol: Tmax in CD1 mouse at 5 mg/kg, po
Type: ADME, organism-based
Set-up: dose 5 mg/kg, route oral
condition.notes: in vivo
assay.readout: Tmax (min)

{"columns": ["mol.smiles", "assay.readout", "endpoint.result"],
 "data": [
  ["N#Cc1c[nH]c(C(=O)Nc2ccc(C3CCNCC3)cc2C2=CCCCC2)n1.O=C(O)C(F)(F)F", "Tmax", 15],
  ["CC(=O)N1CCC(c2ccc(NC(=O)c3nc(C#N)c[nH]3)c(C3=CCCCC3)c2)CC1", "Tmax", 30],
  ["CC1CCN(c2cc(N3CCN(C)CC3)ccc2NC(=O)c2ccc(C#N)o2)CC1", "Tmax", 30]
]}

====

test.protocol: Metabolic stability in mouse liver microsomes assessed as compound remaining after 10 mins
Format: ADME, Microsome
condition.notes: read-out: Stability

{"columns": ["mol.smiles", "remaining at 10 min (%)"],
 "data": [
  ["CC(=O)N1CCC(c2ccc(NC(=O)c3nc(C#N)c[nH]3)c(C3=CCCCC3)c2)CC1", 86],
  ["CN(C)CC(=O)N1CCC(c2ccc(NC(=O)c3nc(C#N)c[nH]3)c(C3=CCCCC3)c2)CC1", 81],
  ["N#Cc1c[nH]c(C(=O)Nc2ccc(C3CCN(C(=O)Cc4ccncc4)CC3)cc2C2=CCCCC2)n1", 24],
  ["N#Cc1c[nH]c(C(=O)Nc2ccc(C3CCN(CC(N)=O)CC3)cc2C2=CCCCC2)n1", 79],
  ["CS(=O)(=O)CCN1CCC(c2ccc(NC(=O)c3nc(C#N)c[nH]3)c(C3=CCCCC3)c2)CC1", 98]
]}

====

test.protocol: Apparent volume of distribution in CD1 mouse at 0.5 mg/kg, iv
Format: ADME, organism-based
Design: dose 0.5 mg/kg, route intravenous
condition.notes: CD1, mouse, in vivo, read-out: Vz
Below, each entry is listed alongside its reported log10(Vd).
assay.readout: log10(Vd) (log10 of the value in L/kg)

{"columns": ["mol.smiles", "endpoint.result"],
 "data": [
  ["N#Cc1c[nH]c(C(=O)Nc2ccc(C3CCN(C(=O)Cc4ccncc4)CC3)cc2C2=CCCCC2)n1", 0.86],
  ["CC(=O)N1CCC(c2ccc(NC(=O)c3nc(C#N)c[nH]3)c(C3=CCCCC3)c2)CC1", 0.45],
  ["Cn1cnc(CC(=O)N2CCC(c3ccc(NC(=O)c4nc(C#N)c[nH]4)c(C4=CCCCC4)c3)CC2)c1", 0.59],
  ["N#Cc1c[nH]c(C(=O)Nc2ccc(C3CCNCC3)cc2C2=CCCCC2)n1.O=C(O)C(F)(F)F", 1.51],
  ["N#Cc1c[nH]c(C(=O)Nc2ccc(C3CCN(CC(N)=O)CC3)cc2C2=CCCCC2)n1", 0.81],
  ["CS(=O)(=O)CC(=O)N1CCC(c2ccc(NC(=O)c3nc(C#N)c[nH]3)c(C3=CCCCC3)c2)CC1", 0.20],
  ["CC1CCN(c2cc(N3CCN(C)CC3)ccc2NC(=O)c2ccc(C#N)o2)CC1", 1.09],
  ["N#Cc1c[nH]c(C(=O)Nc2ccc(C3CCN(C(=O)NCCO)CC3)cc2C2=CCCCC2)n1", 1.01],
  ["CN(C)CC(=O)N1CCC(c2ccc(NC(=O)c3nc(C#N)c[nH]3)c(C3=CCCCC3)c2)CC1", 0.85],
  ["CS(=O)(=O)CCN1CCC(c2ccc(NC(=O)c3nc(C#N)c[nH]3)c(C3=CCCCC3)c2)CC1", 0.58]
]}

====

test.protocol: Solubility of the compound in PBS
Format: physicochemical
Assign T to entries whose solubility meets or exceeds 8 µM; assign F to the rest.

{"columns": ["mol.smiles", "class.label"],
 "data": [
  ["N#Cc1c[nH]c(C(=O)Nc2ccc(C3CCN(C(=O)Cc4cccnc4)CC3)cc2C2=CCCCC2)n1", "T"],
  ["N#Cc1c[nH]c(C(=O)Nc2ccc(C3CCN(C(=O)Cc4ccccn4)CC3)cc2C2=CCCCC2)n1", "F"],
  ["CN(C)CC(=O)N1CCC(c2ccc(NC(=O)c3nc(C#N)c[nH]3)c(C3=CCCCC3)c2)CC1", "T"],
  ["CS(=O)(=O)CC(=O)N1CCC(c2ccc(NC(=O)c3nc(C#N)c[nH]3)c(C3=CCCCC3)c2)CC1", "F"]
]}

====

test.protocol: Cmax in CD1 mouse at 5 mg/kg, po
Type: ADME, organism-based
Design: dose 5 mg/kg, route oral
condition.notes: in vivo
Below, each entry is listed alongside its reported Cmax.

{"columns": ["mol.smiles", "Cmax [ng/mL]"],
 "data": [
  ["CN(C)CC(=O)N1CCC(c2ccc(NC(=O)c3nc(C#N)c[nH]3)c(C3=CCCCC3)c2)CC1", 296],
  ["CS(=O)(=O)CCN1CCC(c2ccc(NC(=O)c3nc(C#N)c[nH]3)c(C3=CCCCC3)c2)CC1", 866],
  ["N#Cc1c[nH]c(C(=O)Nc2ccc(C3CCN(CCN4CCOCC4)CC3)cc2C2=CCCCC2)n1", 461],
  ["Cn1cnc(CC(=O)N2CCC(c3ccc(NC(=O)c4nc(C#N)c[nH]4)c(C4=CCCCC4)c3)CC2)c1", 81],
  ["CC(=O)N1CCC(c2ccc(NC(=O)c3nc(C#N)c[nH]3)c(C3=CCCCC3)c2)CC1", 209],
  ["N#Cc1c[nH]c(C(=O)Nc2ccc(C3CCN(C(=O)Cc4ccncc4)CC3)cc2C2=CCCCC2)n1", 118],
  ["N#Cc1c[nH]c(C(=O)Nc2ccc(C3CCNCC3)cc2C2=CCCCC2)n1.O=C(O)C(F)(F)F", 50],
  ["CS(=O)(=O)CC(=O)N1CCC(c2ccc(NC(=O)c3nc(C#N)c[nH]3)c(C3=CCCCC3)c2)CC1", 24],
  ["N#Cc1c[nH]c(C(=O)Nc2ccc(C3CCN(C(=O)NCCO)CC3)cc2C2=CCCCC2)n1", 24],
  ["N#Cc1c[nH]c(C(=O)Nc2ccc(C3CCN(CC(N)=O)CC3)cc2C2=CCCCC2)n1", 55],
  ["CC1CCN(c2cc(N3CCN(C)CC3)ccc2NC(=O)c2ccc(C#N)o2)CC1", 285]
]}

====

test.protocol: Solubility of the compound in PBS
Type: physicochemical
assay.readout: log10 of solubility (log10 of the value in µM)

{"columns": ["mol.smiles", "endpoint.result"],
 "data": [
  ["N#Cc1c[nH]c(C(=O)Nc2ccc(C3CCN(CC(N)=O)CC3)cc2C2=CCCCC2)n1", 1.46],
  ["CC(=O)N1CCC(c2ccc(NC(=O)c3nc(C#N)c[nH]3)c(C3=CCCCC3)c2)CC1", 1.42],
  ["N#Cc1c[nH]c(C(=O)Nc2ccc(C3CCNCC3)cc2C2=CCCCC2)n1.O=C(O)C(F)(F)F", 1.59],
  ["Cn1cnc(CC(=O)N2CCC(c3ccc(NC(=O)c4nc(C#N)c[nH]4)c(C4=CCCCC4)c3)CC2)c1", 1.56],
  ["N#Cc1c[nH]c(C(=O)Nc2ccc(C3CCN(C(=O)Cc4ccncc4)CC3)cc2C2=CCCCC2)n1", -0.41],
  ["CS(=O)(=O)CCN1CCC(c2ccc(NC(=O)c3nc(C#N)c[nH]3)c(C3=CCCCC3)c2)CC1", 0.62],
  ["N#Cc1c[nH]c(C(=O)Nc2ccc(C3CCN(CCN4CCOCC4)CC3)cc2C2=CCCCC2)n1", 1.41],
  ["N#CCCN1CCC(c2ccc(NC(=O)c3nc(C#N)c[nH]3)c(C3=CCCCC3)c2)CC1", 1.07]
]}

====

test.protocol: Clearance in CD1 mouse at 0.5 mg/kg, iv
Assay type: ADME, organism-based
Design: dose 0.5 mg/kg, route intravenous
condition.notes: in vivo
Below, each entry is listed alongside its reported clearance.

{"columns": ["mol.smiles", "clearance / mL/min/kg"],
 "data": [
  ["Cn1cnc(CC(=O)N2CCC(c3ccc(NC(=O)c4nc(C#N)c[nH]4)c(C4=CCCCC4)c3)CC2)c1", 81.8],
  ["CC(=O)N1CCC(c2ccc(NC(=O)c3nc(C#N)c[nH]3)c(C3=CCCCC3)c2)CC1", 27],
  ["N#Cc1c[nH]c(C(=O)Nc2ccc(C3CCNCC3)cc2C2=CCCCC2)n1.O=C(O)C(F)(F)F", 51.7],
  ["N#Cc1c[nH]c(C(=O)Nc2ccc(C3CCN(CC(N)=O)CC3)cc2C2=CCCCC2)n1", 53.3],
  ["N#Cc1c[nH]c(C(=O)Nc2ccc(C3CCN(C(=O)Cc4ccncc4)CC3)cc2C2=CCCCC2)n1", 205]
]}

====

Below, each entry is listed alongside its reported remaining at 10 min.
test.protocol: Metabolic stability in human liver microsomes assessed as compound remaining after 10 mins
Type: ADME, Microsome
condition.notes: read-out: Stability

{"columns": ["mol.smiles", "remaining at 10 min (%)"],
 "data": [
  ["N#Cc1c[nH]c(C(=O)Nc2ccc(C3CCN(C(CO)CO)CC3)cc2C2=CCCCC2)n1", 100],
  ["N#Cc1c[nH]c(C(=O)Nc2ccc(C3CCN(CCN4CCOCC4)CC3)cc2C2=CCCCC2)n1", 77],
  ["CS(=O)(=O)CC(=O)N1CCC(c2ccc(NC(=O)c3nc(C#N)c[nH]3)c(C3=CCCCC3)c2)CC1", 100],
  ["N#Cc1c[nH]c(C(=O)Nc2ccc(C3CCN(C(N)=O)CC3)cc2C2=CCCCC2)n1", 78],
  ["N#Cc1c[nH]c(C(=O)Nc2ccc(C3CCN(C(=O)c4cc[n+]([O-])cc4)CC3)cc2C2=CCCCC2)n1", 100],
  ["CC(C)(N)C(=O)N1CCC(c2ccc(NC(=O)c3nc(C#N)c[nH]3)c(C3=CCCCC3)c2)CC1", 94],
  ["N#Cc1c[nH]c(C(=O)Nc2ccc(C3CCN(C(=O)NCCO)CC3)cc2C2=CCCCC2)n1", 80],
  ["N#Cc1c[nH]c(C(=O)Nc2ccc(C3CCN(C(=O)[C@H](O)CO)CC3)cc2C2=CCCCC2)n1", 89],
  ["N#CCCN1CCC(c2ccc(NC(=O)c3nc(C#N)c[nH]3)c(C3=CCCCC3)c2)CC1", 100],
  ["N#Cc1c[nH]c(C(=O)Nc2ccc(C3CCN(CC(N)=O)CC3)cc2C2=CCCCC2)n1", 81],
  ["N#Cc1c[nH]c(C(=O)Nc2ccc(C3CCN(C(=O)Cc4c[nH]cn4)CC3)cc2C2=CCCCC2)n1", 89]
]}
